Overview of recorded IC50 for various compounds
Target: P70S6K (T412E mutant) (Homo sapiens (Human), UniProt P23443, T412E)
Sequence (P23443 whole entry T412E): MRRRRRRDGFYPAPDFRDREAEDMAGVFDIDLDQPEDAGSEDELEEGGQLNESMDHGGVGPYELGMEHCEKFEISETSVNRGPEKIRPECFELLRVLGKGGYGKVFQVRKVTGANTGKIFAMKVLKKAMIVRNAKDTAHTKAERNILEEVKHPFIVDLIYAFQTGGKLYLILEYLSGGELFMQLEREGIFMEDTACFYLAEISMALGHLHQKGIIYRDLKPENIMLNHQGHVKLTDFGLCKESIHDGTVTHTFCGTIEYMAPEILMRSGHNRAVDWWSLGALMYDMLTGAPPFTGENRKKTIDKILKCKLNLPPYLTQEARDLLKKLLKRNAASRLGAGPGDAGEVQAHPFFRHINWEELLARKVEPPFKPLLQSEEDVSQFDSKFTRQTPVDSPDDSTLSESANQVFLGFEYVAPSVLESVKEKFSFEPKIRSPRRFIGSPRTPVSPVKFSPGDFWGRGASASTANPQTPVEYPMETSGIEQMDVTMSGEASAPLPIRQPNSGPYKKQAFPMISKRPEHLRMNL
Assay: P70S6K enzyme assay
Details: 24 μM ATP
MEASUREMENT_TYPE: IC50

{"COMPOUND": "Nc1ncnc(N2CC[C@@H](c3nc(-c4ccc(F)c(C(F)(F)F)c4)cn3CCN3CCC3)[C@H](F)C2)c1Cl (racemic)", "OBSERVED_RESULT": "1 to 10 nM"}
{"COMPOUND": "Cc1cc(-c2cn(CCN3CCC3)c([C@@H]3CCN(c4ncnc(N)c4C(C)C)C[C@@H]3F)n2)ccc1F (racemic) [Compound 24]", "OBSERVED_RESULT": "1 to 10 nM"}
{"COMPOUND": "CN(C)CCn1cc(-c2ccc(F)c(C(F)(F)F)c2)nc1[C@@H]1CCN(c2ncnc(N)c2Cl)C[C@@H]1F (single isomer, unassigned) [Compound 29]", "OBSERVED_RESULT": "1 to 10 nM"}
